- ASSAY PROCEDURE: gradient 5% acetonitrile 3 min, to 50% in 2 min, to 85% in 15 min, held 3 min, 100 µL/min
- EXPERIMENTAL CONDITIONS: column: Zorbax Extend-C18 2.1 x 50 mm; eluents: water / acetonitrile, 0.1% formic acid
Reported RP-LC retention time values are given for each entry in this list.
The reply should be a number in s, with the unit left off.

Solved cases (2 shown):
- COC(=O)c1ccccc1NC(=O)Cn1cccc(-c2nc(-c3ccc(OC)c(OC)c3)no2)c1=O: 871
- CCCS(=O)(=O)c1ccc(NCc2ccc(OC)c(OC)c2)nn1: 706

Would you kindly look at the next entry?
I am curious: what RP-LC retention time value has been reported for O=C(Nc1ccc(N2CCN(C3CCCC3)C2=O)nc1)c1ccc(Br)cc1 ?
876
